# System: Setaria
# experimentDescription: Herbicidal action before emergence of the plants (pre-emergent action)
# Format: in vivo
# Set-up: key: 1=complete damage; 9=no action; Ratings of 1 to 4 (in particular 1 to 3) mean a good to very good herbicidal action
# setupConditions: 2000 g of active substance/ha, sprayed immediately after sowing, evaluated after 3 weeks, ratings scale of nine levels
Listing of entries alongside the reported Pre-emergent action, rating, Setaria.
propertyName: Pre-emergent action, rating, Setaria

1. CC1(C)CCCN(S2=NC(N)=NC(Oc3c(F)c(F)c(F)c(F)c3F)=N2)C1 (centres unmarked)    1
2. CC1CN(S2=NC(N)=NC(Oc3c(F)c(F)c(F)c(F)c3F)=N2)CCC(C)(C)C1 (single isomer, unassigned) [6.93]    1
3. CC1CN(S2=NC(N)=NC(Oc3c(F)c(F)c(F)c(F)c3F)=N2)C2CCCCC12 (centres unmarked)    1
4. CC1(C)CC2CC(C)(CN2S2=NC(N)=NC(Oc3c(F)c(F)c(F)c(F)c3F)=N2)C1 (single isomer, unassigned) [6.153]    3
5. CC1CC2CCCCC2N(S2=NC(N)=NC(Oc3c(F)c(F)c(F)c(F)c3F)=N2)C1 (centres unmarked)    1
6. CC(OS1=NC(N)=NC(Oc2c(F)c(F)c(F)c(F)c2F)=N1)[Si](C)(C)C (centres unmarked)    1
7. NC1=NC(Oc2c(F)c(F)c(F)c(F)c2F)=NS(N2CCCCCC2)=N1 (centres unmarked)    2
8. CCN(C1CC(C)CC(C)(C)C1)S1=NC(N)=NC(Oc2c(F)c(F)c(F)c(F)c2F)=N1 (centres unmarked)    3
9. CC1CCC(OS2=NC(N)=NC(Oc3c(F)c(F)c(F)c(F)c3F)=N2)CC1 (centres unmarked) [5.327]    3
10. CC1(C)CCC(OS2=NC(N)=NC(Oc3c(F)c(F)c(F)c(F)c3F)=N2)CC1 (centres unmarked)    2
11. CC1CCC(C)N1S1=NC(N)=NC(Oc2c(F)c(F)c(F)c(F)c2F)=N1 (centres unmarked)    3
12. CC1CC(OS2=NC(N)=NC(Oc3c(F)c(F)c(F)c(F)c3F)=N2)CC(C)(C)C1 (centres unmarked) [5.86]    3
13. NC1=NS(N2CCC[C@H]3CCCC[C@H]32)=NC(Oc2c(F)c(F)cc(F)c2F)=N1 (relative stereo)    2
14. NC1=NS(N2CCCCCCCC2)=NC(Oc2c(F)c(F)cc(F)c2F)=N1 (centres unmarked)    2
15. NC1=NS(N2CCCCCC2)=NC(Oc2c(F)c(F)cc(F)c2F)=N1 (centres unmarked)    2
16. CCC1CCCCN1S1=NC(N)=NC(Oc2c(F)c(F)c(F)c(F)c2F)=N1 (centres unmarked)    2
17. C[Si](C)(C)COS1=NC(N)=NC(Oc2c(F)c(F)c(F)c(F)c2F)=N1 (centres unmarked)    1

---

# System: Sinapis
# experimentDescription: Post-emergent herbicidal action (contact herbicide)
# Format: in vivo
# setupConditions: 2000 g of active substance/ha, sprayed in the 4- to 6-leaf stage, evaluated after about 18 days, ratings scale 1-9
propertyName: Post-emergent action, rating, Sinapis

1) CC1CCC(OS2=NC(N)=NC(Oc3c(F)c(F)c(F)c(F)c3F)=N2)CC1 (stereo not shown)    2
2) CC1CC2CCCCC2N(S2=NC(N)=NC(Oc3c(F)c(F)c(F)c(F)c3F)=N2)C1 (stereo not shown)    2
3) CC1CC(OS2=NC(N)=NC(Oc3c(F)c(F)c(F)c(F)c3F)=N2)CC(C)(C)C1 (stereo not shown)    2
4) NC1=NC(Oc2cc(F)ccc2F)=NS(N2CCCCCC2)=N1 (stereo not shown)    2
5) NC1=NC(Oc2cc(F)ccc2F)=NS(N2CCc3ccccc3CC2)=N1 (stereo not shown)    1
6) CC1CCCC(OS2=NC(N)=NC(Oc3c(F)c(F)c(F)c(F)c3F)=N2)C1 (stereo not shown)    2
7) NC1=NS(N2CCc3ccccc3C2)=NC(Oc2c(F)c(F)cc(F)c2F)=N1 (stereo not shown)    2
8) CC1(C)C2CCC1(C)C(OS1=NC(N)=NC(Oc3c(F)c(F)c(F)c(F)c3F)=N1)C2 (stereo not shown)    2
9) CC(C)(C)C1CCC(OS2=NC(N)=NC(Oc3c(F)c(F)c(F)c(F)c3F)=N2)CC1 (stereo not shown) [5.316]    2
10) CN(C1CCCCC1)S1=NC(N)=NC(Oc2c(F)c(F)c(F)c(F)c2F)=N1 (stereo not shown)    2
11) CC1CCN(S2=NC(N)=NC(Oc3c(F)c(F)c(F)c(F)c3F)=N2)C2CCCCC12 (stereo not shown)    2
12) NC1=NC(Oc2c(F)c(F)c(F)c(F)c2F)=NS(N2CCCC3CCCCC32)=N1 (stereo not shown)    3
13) CN(Cc1ccccc1)S1=NC(N)=NC(Oc2c(F)c(F)c(F)c(F)c2F)=N1 (stereo not shown)    2
14) CC(C)(C)C1CCC(OS2=NC(N)=NC(Oc3c(F)c(F)c(F)c(F)c3F)=N2)CC1 (stereo not shown) [5.127]    2
15) NC1=NC(OCC(Cl)(Cl)C(F)(F)F)=NS(OCCCl)=N1 (stereo not shown)    1
16) NC1=NS(N2CCCCCCCCCC2)=NC(Oc2c(F)c(F)cc(F)c2F)=N1 (stereo not shown)    2
